In this section, each of the compounds is paired with its reported MIC.
# Test system: B. fragilis 6688
# procedure-text: MIC determination, broth microdilution (CLSI)
# Format: cell-based
# measurement-conditions: Bacteroides fragilis, 6688, strain 15; broth microdilution; read-out: MIC strain 15 (B. fragilis 6688)

>  <compound>
CC1(C)[C@H](NC(=O)/C(=N\O[C@@H](COc2ccc(C(=N)NCCNc3ncccn3)cc2)C(=O)O)c2csc(N)n2)C(=O)N1OS(=O)(=O)O

>  <MIC [µg/mL]>
16

$$$$
>  <compound>
CC1(C)[C@H](NC(=O)/C(=N\OC(COc2ccc(C(=N)N)cc2)CC(=O)O)c2csc(N)n2)C(=O)N1OS(=O)(=O)O (mixture of isomers)

>  <MIC [µg/mL]>
32

$$$$
>  <compound>
CC1(C)[C@H](NC(=O)/C(=N\OCCOc2ccc(C(=N)NCCNC(=N)N)cc2)c2csc(N)n2)C(=O)N1OS(=O)(=O)O

>  <MIC [µg/mL]>
4

$$$$
>  <compound>
CC1(C)[C@H](NC(=O)/C(=N\O[C@@H](COc2ccc(C(=N)NCC3CCCCN3)cc2)C(=O)O)c2csc(N)n2)C(=O)N1OS(=O)(=O)O (stereo partly shown)

>  <MIC [µg/mL]>
8

$$$$
>  <compound>
C[C@H]1[C@H](NC(=O)/C(=N\OCc2ccc(C(=N)N)cc2)c2csc(N)n2)C(=O)N1S(=O)(=O)O

>  <MIC [µg/mL]>
8

$$$$
>  <compound>
CC1(C)[C@H](NC(=O)/C(=N\O[C@@H](COc2ccc(C(=N)NC3CCCNC3)cc2)C(=O)O)c2csc(N)n2)C(=O)N1OS(=O)(=O)O (stereo partly shown)

>  <MIC [µg/mL]>
4

$$$$
>  <compound>
CNCCNC(=N)c1ccc(OC[C@H](O/N=C(\C(=O)N[C@@H]2C(=O)N(OS(=O)(=O)O)C2(C)C)c2csc(N)n2)C(=O)O)cc1

>  <MIC [µg/mL]>
8

$$$$
>  <compound>
CC1(C)[C@H](NC(=O)/C(=N\OCCOc2ccc(C(=N)NCCN)nc2)c2csc(N)n2)C(=O)N1OS(=O)(=O)O

>  <MIC [µg/mL]>
4

$$$$
>  <compound>
CC1(C)[C@H](NC(=O)/C(=N\O[C@@H](COc2ccc(C(=N)NC3CNCC3N)cc2)C(=O)O)c2csc(N)n2)C(=O)N1OS(=O)(=O)O (stereo partly shown)

>  <MIC [µg/mL]>
8

$$$$
>  <compound>
CC1(C)[C@H](NC(=O)/C(=N\OCCCOc2ccc(C(=N)N)cc2)c2csc(N)n2)C(=O)N1OS(=O)(=O)O

>  <MIC [µg/mL]>
4

$$$$
>  <compound>
CC1(C)[C@H](NC(=O)/C(=N\OCCOc2ccc(C(=N)N)cc2)c2csc(N)n2)C(=O)N1OCS(=O)(=O)O

>  <MIC [µg/mL]>
4

$$$$
>  <compound>
CC1(C)[C@H](NC(=O)/C(=N\O[C@@H](COc2ccc(C(=N)NC3CNC3)cc2)C(=O)O)c2csc(N)n2)C(=O)N1OS(=O)(=O)O

>  <MIC [µg/mL]>
8

$$$$
>  <compound>
C[C@H]1[C@H](NC(=O)/C(=N\OCCOc2ccc(NC(=N)N)cc2)c2csc(N)n2)C(=O)N1S(=O)(=O)O

>  <MIC [µg/mL]>
16

$$$$
